Measured values drawn from paper PMC3527734 for this set.

- assay remarks: stability in TRIS buffer pH 7.4
- Type: physicochemical
- condition details: pH 7.4, Tris buffer pH 7.4, 40 μM, 37°C, LC-MS/MS, representative of three experiments, read-out: % S38151 remaining
Where a SMILES comes first, the peptide text is derived from it.
measured attribute: remaining at 16 h, 40 μM (%)

{"molecule": "CSCC[C@@H]1NC(=O)[C@@H](NC(=O)c2ccc(NC(=N)N)cc2)CSSC[C@@H](C(=O)N[C@@H](Cc2c[nH]c3ccccc23)C(=O)O)NC(=O)[C@@H]2CCCN2C(=O)[C@H](CCCNC(=N)N)NC(=O)[C@H](Cc2ccc(O)cc2)NC(=O)[C@H](C(C)C)NC(=O)[C@H](CCCNC(=N)N)NC(=O)[C@H](CC(C)C)NC1=O [S38151] (HELM PEPTIDE1{[N=C(N)Nc1ccc(C(=O)[*:2])cc1].C.M.L.R.V.Y.R.P.C.W}$PEPTIDE1,PEPTIDE1,2:R3-10:R3$$$V2.0; C-terminus assumed)", "unit descriptor": "%", "endpoint value": 32}
